Assay: small-molecule microarray binders of probe aXIP, primary screen, biochemical, NeuroSMM set, 635/667 nm fluorescence (AID 1119);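 note: probe is the protein aXip251-270 applied at 1 µg/mL to compound-printed slides; binding of probe to printed compounds measured as 667 nm fluorescence plus signal to noise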
Conditions: higher = more signal, called active from +8 up or from −8 down
Mark t for reported composite Z-score of 0.02 or greater; mark f for anything smaller.

MOLECULE	CLASS
O=C1C2=CC[C@H]3C(=O)N(c4ccc(F)cc4F)C(=O)[C@H]3[C@H]2[C@H](O)[C@@H]2O[C@H]12	f
CC1(C)O[C@H]2OC([C@H](O)CON3C(=O)c4ccccc4C3=O)[C@H](O)[C@H]2O1 (some centres undefined)	f
O=C1[C@H]2[C@H]3[C@H](O)[C@H](O)CC(=NO[C@@H]4O[C@H](CO)[C@@H](O)[C@H](O)[C@H]4O)[C@H]3CC[C@H]2C(=O)N1c1ccc(F)cc1F	f
COC(=O)[C@H](C)NC(=O)CCC1CC(OC(=O)NCc2ccc3c(c2)OCO3)CC2(CCCC(COC(=O)NCCCN3CCCC3=O)O2)O1 (some centres undefined)	t
CC(CCN1CCc2nc(-c3ccccc3)c(-c3ccccc3)cc2C1)=NOC(C)CN1CCCc2nc(C)c(C)cc21 (centres undefined)	t
COC(=O)[C@@H]1CC[C@H](C)[C@@H](c2ccc(C)cc2)N1C(=O)c1ccc(C=NO[C@@H](C)c2cc(-c3c(C)cc(C)cc3C)no2)cc1	f
COCOc1ccc(Br)cc1C(=O)C=Cc1ccc2c(c1)OCO2	t
CCN1C(=O)[C@H]2[C@H]3[C@H](O)[C@H](O)CC(=NO[C@@H]4O[C@H](COC(C)=O)[C@@H](OC(C)=O)[C@H](OC(C)=O)[C@H]4OC(C)=O)[C@@H]3CC[C@H]2C1=O	t
CO[C@H]1COC(=O)CCC[C@H](C)[C@@H](OC)COC(=O)CC=C[C@@H]1C	t
O=C1C[C@H](c2ccccc2)[C@H](c2ccc(Br)cc2)O1	t
CC(=O)OC[C@H]1O[C@H](CC=NO[C@@H](C)c2cn([C@H](CO)Cc3ccccc3)nn2)C=C[C@@H]1OC(C)=O	t
COc1ccc(OC[C@@H](CO)OC)cc1	t
COc1ccc(COC(=O)NN=C2C[C@@H](O)[C@@H](O)[C@@H]3[C@@H]4C(=O)N([C@@H](C)c5ccccc5)C(=O)[C@@H]4CC[C@H]23)cc1	f
CCN1C(=O)[C@H]2[C@H]3[C@H](O)[C@H](O)CC(=NOC(C)CN4CCCc5nc(C)c(C)cc54)[C@@H]3CC[C@H]2C1=O (some centres undefined)	t
C#CCCCON=C1C[C@@H](O)[C@@H](O)[C@@H]2[C@@H]3C(=O)N(C[C@@H]4CCCO4)C(=O)[C@@H]3CC[C@@H]12	f
C[C@@H]1CC[C@H]2C(=O)O[C@@H](COc3ccc(C(C)(C)C)cc3)CN2[C@H]1c1ccc(Br)cc1	t
O=C1C=C[C@@H](O)[C@@H]2[C@@H]3C(=O)N(Cc4ccccc4)C(=O)[C@@H]3CC[C@@H]12	f
CCOC(=O)[C@H](Cc1ccccc1)NC(=O)CCC1CC(OC(=O)NCc2ccc3c(c2)OCO3)CC2(CCCC(COC(=O)NCCOC)O2)O1 (some centres undefined)	t
CO[C@@H]1COC(=O)CC=C[C@H](C)[C@H](OC)COC(=O)[C@@H]2CCCN2C(=O)CC=C[C@H]1C	t
CCN(CC)CC(O)CN1CCCCc2nc(C)c(C)cc21 (centres undefined)	f
CCc1cc2c(nc1CC)CCN(CCC(C)=NOC[C@@H](C)[C@H](OCc1ccccc1)C(C)C)C2	t
C#CCCCON=C1C[C@@H](O)[C@@H](O)[C@@H]2[C@@H]3C(=O)N([C@@H](C)c4ccccc4)C(=O)[C@@H]3CC[C@@H]12	f
CC1(C)O[C@H]2O[C@H]([C@H](O)CON=C3[C@H]4CCn5c(=O)n(-c6ccccc6)c(=O)n5[C@H]4[C@H](O)[C@@H]4O[C@H]34)[C@H](O)[C@H]2O1	f
COC(=O)CC=C[C@@H](C)[C@@H](C=NOC(C)CN1CCCCc2nc(C)c(C)cc21)NS(=O)(=O)c1ccc(C)cc1 (some centres undefined)	f
C#CCCCON=C1[C@H]2CCn3c(=O)n(Cc4cc5c(cc4Cl)OCO5)c(=O)n3[C@H]2[C@H](O)[C@@H]2O[C@H]12	f
C[C@H]1C=CCC(=O)OC[C@H](C)C(=O)N2CCC[C@H]2C(=O)OC1	t
C[C@@H](c1ccccc1)N1C(=O)[C@H]2[C@H]3[C@H](O)[C@H](O)CC(=NOCc4ccccc4)[C@@H]3CC[C@H]2C1=O	t
CCOC(=O)[C@H](CC(C)C)NC(=O)CCC1CC(OC(=O)NCCc2ccc(F)cc2)CC2(CCCC(COC(=O)NCc3cccc4ccccc34)O2)O1 (some centres undefined)	f
C=C(C)C(=O)OC[C@H]1CN2[C@@H](CC[C@@H](C)[C@@H]2c2ccc(Br)cc2)C(=O)O1	t

====

Target: Dihydroorotate dehydrogenase (quinone), mitochondrial (Plasmodium falciparum (isolate 3D7)) (UniProt Q08210)
Sequence (Q08210 whole entry, looked up): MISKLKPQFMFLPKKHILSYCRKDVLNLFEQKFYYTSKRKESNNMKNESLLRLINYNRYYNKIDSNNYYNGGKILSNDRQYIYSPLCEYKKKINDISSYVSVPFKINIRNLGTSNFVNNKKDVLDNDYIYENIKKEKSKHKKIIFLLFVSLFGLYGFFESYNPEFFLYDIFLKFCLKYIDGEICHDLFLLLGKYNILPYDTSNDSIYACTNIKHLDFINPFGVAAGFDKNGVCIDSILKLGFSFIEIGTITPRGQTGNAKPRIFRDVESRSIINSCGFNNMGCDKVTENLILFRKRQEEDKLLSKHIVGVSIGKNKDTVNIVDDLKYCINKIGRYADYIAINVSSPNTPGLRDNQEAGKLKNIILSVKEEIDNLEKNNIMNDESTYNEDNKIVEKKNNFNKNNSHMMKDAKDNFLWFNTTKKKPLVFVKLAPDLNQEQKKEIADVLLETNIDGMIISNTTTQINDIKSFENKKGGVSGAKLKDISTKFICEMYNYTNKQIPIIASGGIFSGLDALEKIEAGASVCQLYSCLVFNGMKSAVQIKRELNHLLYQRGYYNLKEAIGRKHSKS
Test: PfDHODH enzyme inhibitors, primary screen, biochemical, C-terminal His tag, absorbance 600 nm (AID 1175);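 note: recombinant parasite enzyme with a five histidine tag at its C terminus; test concentration not given here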
Conditions: DCIP absorbance 600 nm, higher = more signal, called active from +8 up or from −8 down

MOLECULE	composite z-score
CON=C(C)CCN1CCCc2nc(C)c(C)cc21	-0.329
CCN1C(=O)[C@H]2[C@H]3[C@H](O)[C@H](O)CC(=NOCC[C@@H]4C=C[C@H](OC(C)=O)[C@@H](COC(C)=O)O4)[C@@H]3CC[C@H]2C1=O	-0.666
COc1ccc(O[C@H]2C=C[C@@H](c3ccccc3)O[C@@H]2COC(=O)NCc2cccc3ccccc23)cc1	-0.0459
CON=C(C)CCN1CCCCc2nc(C)c(C)cc21	-1.07
COc1ccc(COC(=O)NN=C2C[C@@H](O)[C@@H](O)[C@@H]3[C@@H]4C(=O)N(C[C@@H]5CCCO5)C(=O)[C@@H]4CC[C@H]23)cc1	-0.395
CCOC(=O)[C@H](Cc1ccccc1)NC(=O)CCC1CC(OC(=O)NCc2cccc3ccccc23)CC2(CCCC(COC(=O)NCCc3ccc(Cl)cc3)O2)O1 (some centres undefined)	-0.617
CO[C@H]1COC(=O)CC=C[C@@H](C)COC(=O)[C@H]2CCCN2C(=O)CC=C[C@H]1C	0.119
O=C(NCCC[N+]1=CC=NC1c1ccccc1)N1CCCc2nc(-c3ccc(Br)cc3)ccc21 (centres undefined)	1.01
O=C1C=C[C@@H](O)[C@@H]2[C@@H]3C(=O)N(Cc4ccccc4)C(=O)[C@@H]3CC[C@@H]12	-0.136

====

System: Noggin (protein binding on small-molecule microarray)
Test: Noggin binders on small-molecule microarray, primary screen, biochemical, 635/667 nm fluorescence (AID 1095);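 note: score merges 667 nm feature fluorescence with signal to noise over triplicate slides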
Conditions: 635 nm fluorescence, higher = more signal
The reader will find reported composite z-score values listed item by item below.

COMPOUND	composite z-score
COC(=O)[C@H](C)NC(=O)CCC1CC(OC(=O)NCCc2ccc(F)cc2)CC2(CCCC(COC(=O)NCc3ccccc3)O2)O1 (some centres not stated)	0.55
CC(=O)OC[C@H]1O[C@@H](ON=C2[C@H]3CCn4c(=O)n(-c5ccccc5)c(=O)n4[C@H]3[C@H](O)[C@@H]3O[C@H]23)[C@H](OC(C)=O)[C@@H](OC(C)=O)[C@@H]1OC(C)=O	0.349
C=CC[C@@H]1C=C[C@H](ON=C(C)CCN2CCCCc3nc(C)c(C)cc32)[C@@H](CO)O1	1.21
CCOC(=O)[C@H](Cc1ccccc1)NC(=O)CCC1CC(OC(=O)NCCc2ccc(F)cc2)CC2(CCCC(COC(=O)NCCC(C)C)O2)O1 (some centres not stated)	1.24
CC(C)=NOC(C)CN1CCCc2nc(C)c(C)cc21 (configuration not stated)	0.674
Cc1cc2c(nc1C)CCCCN2CC(O)CN1CCCc2nc(-c3ccc(Br)cc3)ccc21 (configuration not stated)	0.558
CCN(CC)CC(O)CN1CCCCc2nc(C)c(C)cc21 (configuration not stated)	0.454
CC(=O)OC[C@H]1O[C@H](CC=NOC(C)CN2CCCCc3nc(C)c(C)cc32)C=C[C@@H]1OC(C)=O (some centres not stated)	1.13
C=CC[C@@H]1C=CC(ON=C(C)C)[C@@H](CO)O1 (some centres not stated)	-0.117
CCOC(=O)[C@H](Cc1ccccc1)NC(=O)CCC1CC(OC(=O)NCCc2ccc(F)cc2)CC2(CCCC(COC(=O)NCc3cccc(C(F)(F)F)c3)O2)O1 (some centres not stated)	0.832
COC(=O)CC=C[C@@H](C)[C@@H](C=NOC[C@@H](O)[C@H]1O[C@@H]2OC(C)(C)O[C@@H]2[C@H]1O)OC	0.505
CCc1cc2c(nc1CC)CCN(CCC(C)=NO[C@@H]1O[C@H](COC(C)=O)[C@@H](OC(C)=O)[C@H](OC(C)=O)[C@H]1OC(C)=O)C2	1.06
C=CC[C@@H]1C=C[C@H](ON=CC[C@@H]2C=C[C@H](OC(C)=O)[C@@H](COC(C)=O)O2)[C@@H](CO)O1	0.984
O=C1C=C[C@@H](O)[C@@H]2[C@@H]3C(=O)N(C4CCCCC4)C(=O)[C@@H]3CC[C@@H]12	0.277
CC(C)(C)N1C(=O)[C@H]2[C@@H]3C(=CC[C@H]2C1=O)C(=O)[C@H]1O[C@H]1[C@H]3O	-0.0454
CC(C)=CCCC(C)=CCON=C1[C@H]2CCn3c(=O)n(-c4ccccc4)c(=O)n3[C@H]2[C@H](O)[C@@H]2O[C@H]12	0.59
COc1ccc(COC(=O)NN=C2C[C@@H](O)[C@@H](O)[C@@H]3[C@@H]4C(=O)N(C[C@@H]5CCCO5)C(=O)[C@@H]4CC[C@H]23)cc1	-0.809
O=C1C2=CC[C@H]3C(=O)N(C[C@@H]4CCCO4)C(=O)[C@H]3[C@H]2[C@H](O)[C@@H]2O[C@H]12	-0.0904
CON=C(C)CCN1CCc2nc(-c3ccccc3)c(-c3ccccc3)cc2C1	0.107
CCN1C(=O)[C@H]2[C@H]3[C@H](O)[C@H](O)CC(=NO[C@H](C)c4cn([C@H](CO)Cc5ccccc5)nn4)[C@@H]3CC[C@H]2C1=O	0.496
CCOC(=O)CCN1C(=O)[C@H]2[C@H]3[C@H](O)[C@H](O)CC(=NOCC(C)C)[C@@H]3CC[C@H]2C1=O	1.39
CC#CCOCCC=C1c2ccccc2[C@@H](OC)[C@@H]1C	0.697
